Biological target: hGLP-1R (Homo sapiens)
Sequence (P43220 24-463): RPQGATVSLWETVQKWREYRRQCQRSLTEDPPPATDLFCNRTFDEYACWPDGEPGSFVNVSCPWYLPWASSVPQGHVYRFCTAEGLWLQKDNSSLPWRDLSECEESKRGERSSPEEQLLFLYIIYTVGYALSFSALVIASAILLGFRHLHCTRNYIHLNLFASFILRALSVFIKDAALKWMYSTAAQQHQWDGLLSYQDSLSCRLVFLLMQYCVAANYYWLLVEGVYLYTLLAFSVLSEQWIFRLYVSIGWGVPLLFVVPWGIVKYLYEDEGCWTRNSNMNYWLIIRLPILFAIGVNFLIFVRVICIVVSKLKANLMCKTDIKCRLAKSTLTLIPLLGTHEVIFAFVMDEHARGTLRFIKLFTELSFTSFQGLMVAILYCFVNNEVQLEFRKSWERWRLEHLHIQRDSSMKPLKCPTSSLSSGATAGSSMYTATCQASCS
Assay: Functional cAMP activity in the presence of 1% HSA
Assay type: cell-based
Conditions: read-out: cAMP Rel EC50, hGLP-1R
pEC50: −log10 of the molar value. Starred links: 1 amine or outer side, 2 acyl side, 3 side chain; linkers in the order of their positions; H or OH if unused. Non-standard residues stand in square brackets, D forms with d. Groups on a side chain read outwards from the residue. No end group written: not given here. *: point of attachment. C20 diacid = O=C(O)CCCCCCCCCCCCCCCCCCC(=O)*; C18 diacid = O=C(O)CCCCCCCCCCCCCCCCC(=O)*; αMePhe(2-F) = C[C@](N)(Cc1ccccc1F)C(=O)O; γGlu = O=C(O)[C@H](CCC(=O)[*:2])N[*:1]; αMe4Pal = C[C@](N)(Cc1ccncc1)C(=O)O; αMeY = C[C@](N)(Cc1ccc(O)cc1)C(=O)O; 4Pal = N[C@@H](Cc1ccncc1)C(=O)O; αMeL = CC(C)C[C@](C)(N)C(=O)O; αMeS = C[C@](N)(CO)C(=O)O; Orn = NCCC[C@H](N)C(=O)O; AEEA = NCCOCCOCC(=O)O; Aib = CC(C)(N)C(=O)O
Lab note: anything with pEC50 at or over 7 counts as class 1; the rest go in class 0.

Worked set:
| SUBSTANCE | DISCRETE_LABEL |
| --- | --- |
| H-Y[Aib]QGT[αMePhe(2-F)]TSD[4Pal][αMeS]I[αMeL]LD[Orn]K([γGlu-γGlu-C18 diacid])AQ[Aib][Orn]FI[dE][αMeY]LAEGGPSSGEPPPSGSEE-NH2 [Example 589] | class 1 |
| Y[Aib]QGT[αMePhe(2-F)]TSD[4Pal]SILLDKK([γGlu-γGlu-C18 diacid])AQ[Aib]AFIEYLQEGGPSSGAPPPSGTEE-NH2 [Example 580] | class 1 |
| H-Y[Aib]QGTFTSD[4Pal]SQ[αMeL]LDKK([AEEA-γGlu-C18 diacid])AQ[αMe4Pal]AFIEYLIE[Aib]GPSSGAPPPSGSGE [Example 889] | class 0 |

Ask: Is reported pEC50 greater than or equal to 7 here: H-Y[Aib]Q[dA]T[αMePhe(2-F)]TSD[4Pal][αMeS]I[αMeL]LD[Orn]K([γGlu-γGlu-C18 diacid])AQ[Aib]EFI[dE][αMeY]LIEGGPSSGAPPPSGGGE-NH2 [Example 1225]
Result: class 1

Ask: What about this substance? H-Y[Aib]QGTFTSD[4Pal]S[Orn][αMeL]LDKK([AEEA-γGlu-γGlu-C18 diacid])AQ[αMe4Pal]AFIE[αMe4Pal]LIE[Aib]GPSSGEPPPSGSE-NH2 [Example 988]
Result: class 0

Ask: Likewise for H-Y[Aib]QGTFTSDFS[Orn][αMeL]LDKK([AEEA-γGlu-γGlu-C18 diacid])AQ[Aib]AFIEYLLE[Aib]GPSSGAPPPSGT-NH2 [Example 278] ?
Result: class 0

Ask: Could you do the same for H-Y[Aib]QGT[αMePhe(2-F)]TSD[4Pal]SI[αMeL]LD[Orn]K([γGlu-γGlu-C18 diacid])AQ[αMe4Pal][Orn]FI[dE][αMeY]LIEGGPSSGEPPPEEG-NH2 [Example 681] , please?
Result: class 1

Ask: Same again, this time with H-Y[Aib]QGTFTSDFSK[αMeL]LDKK([AEEA-γGlu-C20 diacid])AQ[Aib]AFIEYLLAGGPSSGAPPPSGG-NH2 [Example 12]
Result: class 0

Ask: Lookup H-Y[Aib]QGT[αMePhe(2-F)]TSD[4Pal][αMeS]I[αMeL]LD[Orn]K([γGlu-Glu-C18 diacid])AQ[Aib][Orn]FI[dE][αMeY]LSEGGPSSGEPPPSGTEE-NH2 [Example 566]
Result: class 0
